- Tested on: E. coli Imp
- Method Description: microbe, parasite or virus in culture
- Condition: Escherichia coli, 24 h, read-out: Minimum inhibitory concentration (MIC)
Measured Quantity: MIC

Previously resolved entries follow.
* Nc1cc(=O)[nH]c(N)n1 [Compound 1.13, 2,4-diamino-6-hydroxypyrimidine] | > 5000 µg/mL
* CN[C@H](CC(C)C)C(=O)N[C@H]1C(=O)N[C@@H](CC(N)=O)C(=O)N[C@H]2C(=O)N[C@H]3C(=O)N[C@H](C(=O)N[C@H](C(=O)O)c4cc(O)cc(O)c4-c4cc3ccc4O)[C@H](O)c3ccc(c(Cl)c3)Oc3cc2cc(c3O[C@@H]2O[C@H](CO)[C@@H](O)[C@H](O)[C@H]2O[C@H]2C[C@](C)(N)[C@H](O)[C@H](C)O2)Oc2ccc(cc2Cl)[C@H]1O [Vancomycin, reference compound] | 0.25 µg/mL
* Nc1nc(N)c(N)c(O)n1 [Compound 1.01, 4-hydroxy-2,5,6-triaminopyrimidine] | > 5000 µg/mL

--- query ---
Exam item: What does the data say about its MIC? Entry: CC[C@H]1OC(=O)[C@H](C)[C@@H](O[C@H]2C[C@@](C)(OC)[C@@H](O)[C@H](C)O2)[C@H](C)[C@@H](O[C@@H]2O[C@H](C)C[C@H](N(C)C)[C@H]2O)[C@](C)(O)C[C@@H](C)C(=O)[C@H](C)[C@@H](O)[C@]1(C)O [Erythromicin, reference compound]
Marked response: 0.125 to 1 µg/mL

====

- Test system: guanine xpt riboswitch from Streptococcus pyogenes (STPY-xpt)
- Method Description: Relative binding by displacement of 2-aminopurine from the STPY-xpt aptamer
- Condition: compound at 10 μM, compared with 1 μM guanine
Measured Quantity: Relative binding
Number only, no unit.

Some solved entries appear below for comparison.
* Nc1nc(N)c(N)c(O)n1 [Compound 1.01, 4-hydroxy-2,5,6-triaminopyrimidine] | 0.26
* Nc1nc2[nH]cnc2c(=S)[nH]1 | 0.14
* O=c1[nH]c(=O)c2nc[nH]c2[nH]1 | 0.08

Exam item: Missing value: Relative binding, guanine xpt riboswitch from Streptococcus pyogenes (STPY-xpt), entry O=c1[nH]cnc2[nH]cnc12 . Fill in?
Marked response: 0.50

Exam item: Give the reported Relative binding for Nc1[nH]c(=O)[nH]c(=O)c1N (system: guanine xpt riboswitch from Streptococcus pyogenes (STPY-xpt)).
Marked response: 0.05

Exam item: Form: Entry = Nc1ncnc2[nH]cnc12 | System = guanine xpt riboswitch from Streptococcus pyogenes (STPY-xpt) | Relative binding = ____
Marked response: 0.05

Exam item: Lab note: need Relative binding with guanine xpt riboswitch from Streptococcus pyogenes (STPY-xpt) for entry Nc1cc(=O)[nH]c(N)n1 [Compound 1.13, 2,4-diamino-6-hydroxypyrimidine] , please look it up.
Marked response: 0.39
